Entry source: patent US20260008830A1

# assayed.target: IL-2 receptor on IL-2 reporter HEK blue cells (Human IL-2 & IL-15 Reporter Cells, hkb-il2bg)
# Sequence (P14784 whole entry, chain 1 of 2): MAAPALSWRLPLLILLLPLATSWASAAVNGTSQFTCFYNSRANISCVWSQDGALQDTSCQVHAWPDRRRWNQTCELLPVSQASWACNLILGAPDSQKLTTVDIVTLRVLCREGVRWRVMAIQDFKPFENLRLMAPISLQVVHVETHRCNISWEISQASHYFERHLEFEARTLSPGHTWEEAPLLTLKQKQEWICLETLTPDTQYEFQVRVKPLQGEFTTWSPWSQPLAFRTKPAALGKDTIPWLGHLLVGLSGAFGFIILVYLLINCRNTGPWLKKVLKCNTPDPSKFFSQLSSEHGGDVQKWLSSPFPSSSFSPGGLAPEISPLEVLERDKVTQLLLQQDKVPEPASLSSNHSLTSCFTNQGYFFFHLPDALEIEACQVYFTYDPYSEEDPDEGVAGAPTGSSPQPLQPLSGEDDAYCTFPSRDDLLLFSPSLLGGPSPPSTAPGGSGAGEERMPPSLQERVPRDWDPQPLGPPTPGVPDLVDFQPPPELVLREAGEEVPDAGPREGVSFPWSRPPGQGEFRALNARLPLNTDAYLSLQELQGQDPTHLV
# Sequence (P31785 whole entry, chain 2 of 2, further chain): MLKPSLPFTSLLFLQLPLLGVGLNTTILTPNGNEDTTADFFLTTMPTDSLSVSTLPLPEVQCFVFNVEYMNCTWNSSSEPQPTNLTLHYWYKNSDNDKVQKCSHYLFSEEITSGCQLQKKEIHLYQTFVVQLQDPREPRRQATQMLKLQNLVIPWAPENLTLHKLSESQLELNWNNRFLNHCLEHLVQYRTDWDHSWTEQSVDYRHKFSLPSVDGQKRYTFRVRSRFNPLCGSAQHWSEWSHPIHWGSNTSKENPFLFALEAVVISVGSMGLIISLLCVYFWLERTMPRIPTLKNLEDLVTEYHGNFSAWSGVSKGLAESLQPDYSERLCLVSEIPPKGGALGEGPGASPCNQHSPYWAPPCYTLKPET
# procedure.summary: cell-based or functional assay
measured.property: EC-50 (IL-2 reporter HEK blue cells, SEAP, absorbance 630 nm) (pM)
Your answer should be a plain number; it is taken to be in pM.

Query (binder): ORK2-007 (foldikine-2, two 7 aa InterLinkers GPPPPPG) (ligand) LRPRDLISNINVIVLELKGSETTFMCEYADETATIVEFLNRWITFCQSIISTLTGPPPPPGTKKTQLQLEHLLLDLQMILNGINNYKNPKLTRMLTFKFYMPKKATELKHLQCLEEELKPLEEVLNLAQSKNFHLRPRDLISNINVIVLELKGSETTFMCEYADETATIVEFLNRWITFCQSIISTLTGPPPPPGTKKTQLQLEHLLLDLQMILNGINNYKNPKLTRMLTFKFYMPKKATELKHLQCLEEELKPLEEVLNLAQS ; field requested: EC-50 (IL-2 reporter HEK blue cells, SEAP, absorbance 630 nm)
184
